Source of measurements: ChEMBL document CHEMBL6178010

Target: Exportin-1 (Homo sapiens)
Sequence (O14980 whole entry): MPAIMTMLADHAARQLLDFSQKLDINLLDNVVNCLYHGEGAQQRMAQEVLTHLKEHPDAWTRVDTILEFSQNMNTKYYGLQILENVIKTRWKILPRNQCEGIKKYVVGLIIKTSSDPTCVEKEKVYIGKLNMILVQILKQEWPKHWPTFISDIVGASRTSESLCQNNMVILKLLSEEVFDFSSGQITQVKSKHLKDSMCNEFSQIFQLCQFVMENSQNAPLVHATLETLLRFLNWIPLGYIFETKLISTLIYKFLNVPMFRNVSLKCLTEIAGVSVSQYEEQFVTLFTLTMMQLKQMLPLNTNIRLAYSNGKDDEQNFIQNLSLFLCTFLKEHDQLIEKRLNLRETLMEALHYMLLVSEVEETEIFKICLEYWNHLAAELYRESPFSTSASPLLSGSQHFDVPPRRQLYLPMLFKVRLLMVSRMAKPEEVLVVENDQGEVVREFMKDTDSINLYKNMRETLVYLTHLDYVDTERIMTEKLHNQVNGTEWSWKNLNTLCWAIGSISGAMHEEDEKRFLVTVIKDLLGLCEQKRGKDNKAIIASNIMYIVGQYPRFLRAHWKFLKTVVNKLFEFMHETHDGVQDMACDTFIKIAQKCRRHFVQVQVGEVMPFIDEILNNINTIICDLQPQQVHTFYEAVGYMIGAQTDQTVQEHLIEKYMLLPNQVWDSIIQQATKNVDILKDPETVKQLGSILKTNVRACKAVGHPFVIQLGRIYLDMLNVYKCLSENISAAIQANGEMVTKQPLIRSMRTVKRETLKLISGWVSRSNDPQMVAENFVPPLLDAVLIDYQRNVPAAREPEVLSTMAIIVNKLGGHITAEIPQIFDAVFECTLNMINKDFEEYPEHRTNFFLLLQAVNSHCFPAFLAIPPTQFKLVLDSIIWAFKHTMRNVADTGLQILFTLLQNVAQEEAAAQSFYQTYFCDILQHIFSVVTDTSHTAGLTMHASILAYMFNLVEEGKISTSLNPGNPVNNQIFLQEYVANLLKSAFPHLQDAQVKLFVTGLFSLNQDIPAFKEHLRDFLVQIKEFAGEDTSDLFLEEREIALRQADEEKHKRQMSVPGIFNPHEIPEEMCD
Experiment: Inhibition of XPO1 in PMA/ionomycin-activated human Jurkat cells expressing IL-2 promoter reporter gene assessed as suppression of IL-2 transcriptional activity incubated for 6 hrs by Bright-Glo Luciferase assay
pEC50: −log10 of the molar value.
Endpoint name: pEC50

// returns pEC50 for `CC1=CC(=O)N(Nc2nc(-c3ccno3)nn3cccc23)C1=O` with Exportin-1 (Homo sapiens); value = 6.26

(1) CC1=CC(=O)N(Nc2ccc(C(F)(F)F)c(N(C)C)n2)C1=O
(2) CC1=CC(=O)N(Nc2ncc(C(F)(F)F)c(Cl)n2)C1=O
(3) CC1=CC(=O)N(Nc2nc(N3CCCCC3)nn3cccc23)C1=O
(4) CC1=CC(=O)N(Nc2ccc(C(F)(F)F)c(-n3ccnc3)n2)C1=O
(5) CC1=CC(=O)N(Nc2ccc(C(F)(F)F)c(N3CC4CC4C3)n2)C1=O (stereo not given)
Task item: // ranking: key=pEC50, reverse=True # output: labels, in the requested order
Reply: 5, 1, 3, 2, 4

(I) CC1=CC(=O)N(Nc2ccc(C(F)(F)F)c(N3CC4(CCC4)C3)n2)C1=O
(II) CC1=CC(=O)N(Nc2nc(C3CC3)nn3cccc23)C1=O
Task item: Higher pEC50 between I and II ? // respond with label for picked entry
Reply: I
(I: 7.89, II: 6.97)

(1) CC1=CC(=O)N(Nc2ccc(C(F)(F)F)c(N3CCC3)n2)C1=O
(2) CNc1nc(NN2C(=O)C=C(C)C2=O)ccc1C(F)(F)F
Task item: Higher pEC50 between 1 and 2 ? // respond with label for picked entry
Reply: 1
(1: 7.96, 2: 7.43)
